Molecular target: human TYK2 (JH2domain-pseudokinase) (Homo sapiens (Human))
Sequence (P29597 556-888): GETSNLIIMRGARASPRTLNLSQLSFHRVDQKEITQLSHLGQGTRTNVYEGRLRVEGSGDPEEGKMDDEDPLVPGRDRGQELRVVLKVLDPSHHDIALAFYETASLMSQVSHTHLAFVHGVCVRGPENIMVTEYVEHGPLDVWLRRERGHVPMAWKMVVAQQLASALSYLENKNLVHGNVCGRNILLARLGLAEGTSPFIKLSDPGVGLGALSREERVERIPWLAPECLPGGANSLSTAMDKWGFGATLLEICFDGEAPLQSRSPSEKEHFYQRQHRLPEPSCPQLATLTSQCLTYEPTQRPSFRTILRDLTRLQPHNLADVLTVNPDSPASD
Assay: TYK2 JH2 Domain Binding Assay (KINOMEscan)
Conditions: 11-point 3-fold dilution, top concentration 30,000 nM, duplicate; read-out: hTYK2_JH2_Binding (Kd; nM)
metric_name: Kd

| molecule | Kd |
| --- | --- |
| CNc1cc(-c2cnc3n([C@H]4CCOC[C@@H]4O)cccc2-3)nc2c(C(=O)NC3CC3)cnn12 [Compound I-819] | < 0.2 nM |
| O=C(N[C@@H]1C[C@@H]1F)c1cnn2c3c(c(Nc4cccn(C5CCOCC5)c4=O)nc12)OCCN3 [Compound I-751] | < 0.2 nM |
| CNc1cc(Nc2cccn(C3COC3)c2=O)nc2c(C(=O)N[C@H]3CC[C@H]3F)cnn12 [Compound I-161] | < 0.2 nM |
| CC(C)n1cc(-c2nc3c(C(=O)NC4CC[C@H]4O)cnn3c3c2OCCN3)c2cccnc21 (some centres unmarked) [Compound I-753] | < 0.2 nM |
| CNc1cc(-c2cn([C@@H]3CCOC[C@H]3O)c3ncccc23)nc2c(C(=O)N[C@@H]3C[C@@H]3F)cnn12 [Compound I-505] | < 0.2 nM |

[ask] Enter Kd (test system human TYK2 (JH2domain-pseudokinase) (Homo sapiens (Human))) for CNc1cc(-c2cn([C@H]3C[C@@H](O)C3)c3ncccc23)nc2c(C(=O)NC3CC3)cnn12 [Compound I-495]
[reply] < 0.2 nM

[ask] Under human TYK2 (JH2domain-pseudokinase) (Homo sapiens (Human)), report Kd for CNc1cc(Nc2cccn([C@H]3CCC[C@H]3O)c2=O)nc2c(C(=O)N[C@H]3CC[C@H](OC)C3)cnn12 [Compound I-88]
[reply] > 10 nM

[ask] Give Kd only, for CNc1cc(Nc2cccn([C@H]3CC[C@H]3O)c2=O)nc2c(C(=O)N[C@H]3CCC[C@H](OC)C3)cnn12 [Compound I-105] , using human TYK2 (JH2domain-pseudokinase) (Homo sapiens (Human)) data.
[reply] 1 to 10 nM

[ask] Give reported Kd for CNc1cc(-c2cnc3n(C4CCOCC4)cccc2-3)nc2c(C(=O)N[C@@H]3CC[C@H]3OC)cnn12 [Compound I-1015] (human TYK2 (JH2domain-pseudokinase) (Homo sapiens (Human)))
[reply] < 0.2 nM

[ask] Quote human TYK2 (JH2domain-pseudokinase) (Homo sapiens (Human)) Kd for entry O=C(N[C@H]1CCC1(F)F)c1cnn2c3c(c(Nc4cccn([C@H]5[C@@H]6COC[C@@H]65)c4=O)nc12)OCCN3 [Compound I-770] .
[reply] > 10 nM

[ask] Send back human TYK2 (JH2domain-pseudokinase) (Homo sapiens (Human)) Kd of CNc1cc(Nc2cccn([C@@H]3CC[C@@H]3O)c2=O)nc2c(C(=O)N[C@@H]3CCC[C@@H](OC)C3)cnn12 [Compound I-98] only.
[reply] < 0.2 nM

[ask] State Kd on human TYK2 (JH2domain-pseudokinase) (Homo sapiens (Human)). Entry: CNc1cc(Nc2cccn(-c3ccccn3)c2=O)nc2c(C(N)=O)cnn12 [Compound I-119]
[reply] < 0.2 nM
